Exercise: for every item that follows, state its recorded normalised response.
test system: MFM-223; test: normalised response (% of control), CellTox Green; higher = less cell death (100 = DMSO, 0 = benzethonium chloride kill control); details: incubation time: 72 h
Give bare numbers, in %.

molecule="CN(Cc1cnc2nc(N)nc(N)c2n1)c1ccc(C(=O)N[C@@H](CCC(=O)O)C(=O)O)cc1 [Methotrexate] (50000 nM)" quantity_measured="normalised response" result=103

List reported normalised response for each of these molecules:
1. CC[C@H](CO)Nc1nc(NCc2ccccc2)c2ncn(C(C)C)c2n1 [Seliciclib] (100 nM)
2. C/C(=C\c1csc(C)n1)[C@@H]1C[C@@H]2O[C@]2(C)CCC[C@H](C)[C@H](O)[C@@H](C)C(=O)C(C)(C)[C@@H](O)CC(=O)N1 [Ixabepilone] (1000 nM)
3. C/C(=C\c1csc(C)n1)[C@@H]1C[C@@H]2O[C@]2(C)CCC[C@H](C)[C@H](O)[C@@H](C)C(=O)C(C)(C)[C@@H](O)CC(=O)N1 [Ixabepilone] (100 nM)
4. O=[N+]([O-])c1ccc2c(c1)S(=O)(=O)C=C2 [Stattic] (5000 nM)
5. C=CCN(/C=C1/C(=O)O[C@H](COC)[C@@]2(C)C1=C(O)C(=O)C1=C2[C@H](OC(C)=O)C[C@]2(C)C(=O)CC[C@@H]12)CC=C [Sonolisib] (1000 nM)
6. CC(C)n1cnc2c(NCCc3ccc(O)cc3)nc(-c3csc4ccccc34)nc21 [StemRegenin 1] (100 nM)
7. CC1(C)CCC(c2ccc(Cl)cc2)=C(CN2CCN(c3ccc(C(=O)NS(=O)(=O)c4ccc(N[C@H](CCN5CCOCC5)CSc5ccccc5)c(S(=O)(=O)C(F)(F)F)c4)cc3)CC2)C1 [Navitoclax] (10000 nM)

Reply text:
[107, 105, 98.8, 4.35, 104, 98.8, 66.2]

List reported normalised response for each of these molecules:
1. Cn1cc(C2=C(c3cn(C4CCN(Cc5ccccn5)CC4)c4ccccc34)C(=O)NC2=O)c2ccccc21 [Enzastaurin] (10000 nM)
2. Cc1cc(Nc2nc(N[C@@H](C)c3ncc(F)cn3)ncc2Cl)[nH]n1 [AZD1480] (1000 nM)

Reply text:
[100, 41.5]

----------
system: BT-549; test: normalised response (% of control), CellTiter-Glo; higher = more viable cells (100 = DMSO, 0 = benzethonium chloride kill control); details: incubation time: 72 h
Quantity Measured: normalised response
A bare number is not enough; add the unit after it.

compound="Cc1cc(Nc2nc(N[C@@H](C)c3ncc(F)cn3)ncc2Cl)[nH]n1 [AZD1480] (100 nM)" result=105%
compound="CC(=O)[C@]1(O)Cc2c(O)c3c(c(O)c2[C@@H](O[C@H]2C[C@H](N)[C@H](O)[C@H](C)O2)C1)C(=O)c1ccccc1C3=O [Idarubicin] (100 nM)" result=62.6%
compound="C=CCn1c(=O)c2cnc(Nc3ccc(N4CCN(C)CC4)cc3)nc2n1-c1cccc(C(C)(C)O)n1 [MK1775] (1000 nM)" result=21.2%

List reported normalised response for each of these compounds:
1. O=C(O)CNC(=O)c1c(O)c2ccccc2n(Cc2ccccc2)c1=O [IOX-2] (5000 nM)
2. Nc1ccn([C@@H]2O[C@H](CO)[C@@H](O)C2(F)F)c(=O)n1 [Gemcitabine] (1 nM)
3. COc1cc(Nc2c(C#N)cnc3cc(OCCCN4CCN(C)CC4)c(OC)cc23)c(Cl)cc1Cl [Bosutinib] (1 nM)
4. Cn1cc(C2=C(c3cn(C4CCN(Cc5ccccn5)CC4)c4ccccc34)C(=O)NC2=O)c2ccccc21 [Enzastaurin] (10 nM)
5. CO[C@@]12[C@H](COC(N)=O)C3=C(C(=O)C(C)=C(N)C3=O)N1C[C@@H]1N[C@@H]12 [Mitomycin C] (1 nM)

Reply text:
["96.2%", "95%", "98.4%", "92.4%", "105%"]
